species: Rattus norvegicus; experiment: Open TG-GATES - Regimen: Daily Repeat; format: toxicity, organism-based, Sprague-Dawley; design: regimen Daily Repeat, gender Male, age 6 weeks; details: in vivo, po, 0 mg/kg, […], tissue Blood, route gavage, dose level Control, time 28 day
EXPERIMENTAL_ENDPOINT: APTT
Phrase the answer as number then unit, nothing more needed.

Worked cases, answers included:
C#C[C@]1(O)CC[C@H]2[C@@H]3CCC4=Cc5oncc5C[C@]4(C)[C@H]3CC[C@@]21C = 23.5 s
C1CCC(C(CC2CCCCN2)C2CCCCC2)CC1 (centres undefined) = 21.5 s
CCOC(=O)[C@H](CCc1ccccc1)N[C@@H](C)C(=O)N1CCC[C@H]1C(=O)O = 17.7 s
Clc1c(Cl)c(Cl)c(Cl)c(Cl)c1Cl = 16.5 s
CC(CN1c2ccccc2Sc2ccccc21)N(C)C (centres undefined) = 22.7 s
CN1C(C(=O)Nc2ccccn2)=C(O)c2sc(Cl)cc2S1(=O)=O = 21.4 s

Q: Respond only with APTT recorded for CC(=O)Nc1nnc(S(N)(=O)=O)s1 [ACETAZOLAMIDE]
A: 25.9 s

Q: Look up and state reported APTT for `CN(C)[C@@H]1C(O)=C(C(N)=O)C(=O)[C@@]2(O)C(O)=C3C(=O)c4c(O)cccc4[C@@](C)(O)[C@H]3C[C@@H]12`
A: 17.8 s

Q: Give the value of APTT reported for the following: `Cc1cccc(Nc2ccccc2C(=O)O)c1C`
A: 19.1 s

* * *

species on record: Rattus norvegicus; assay: Open TG-GATES - Regimen: Daily Repeat; type: toxicity, organism-based, Sprague-Dawley; parameters: regimen Daily Repeat, gender Male, age 6 weeks; details: in vivo, po, 0 mg/kg, 72 h, tissue Plasma, route gavage, dose level Control, time 3 day
For each record, check the reported TG: if it is below 100 mg/dL write 1.0, else write 0.0.

Q: Report whether reported TG is lower than 100 mg/dL (strictly) for `O=C(O)Cc1ccccc1Nc1c(Cl)cccc1Cl`
A: 0.0

Q: Does the reported TG of the following compound sit strictly below 100 mg/dL? C1CCC(C(CC2CCCCN2)C2CCCCC2)CC1 (stereo not given)
A: 0.0

Q: Could you please tell me whether TG recorded for `Clc1c(Cl)c(Cl)c(Cl)c(Cl)c1Cl` is less than 100 mg/dL?
A: 1.0

Q: Does the reported TG of the following compound sit strictly below 100 mg/dL? CC(CN1c2ccccc2Sc2ccccc21)N(C)C (stereo not given)
A: 0.0

Q: Decide: TG of CC(=O)Nc1nnc(S(N)(=O)=O)s1 [ACETAZOLAMIDE] strictly below 100 mg/dL?
A: 1.0

Q: Quick check: TG of `CCOC(=O)[C@H](CCc1ccccc1)N[C@@H](C)C(=O)N1CCC[C@H]1C(=O)O` under 100 mg/dL?
A: 0.0

Q: Record `CN(C)[C@@H]1C(O)=C(C(N)=O)C(=O)[C@@]2(O)C(O)=C3C(=O)c4c(O)cccc4[C@@](C)(O)[C@H]3C[C@@H]12` : is its TG strictly below 100 mg/dL?
A: 1.0

Q: hey, is TG for `Cc1cccc(Nc2ccccc2C(=O)O)c1C` lower than 100 mg/dL or not?
A: 1.0

Q: Hi there! Is TG for `C#C[C@]1(O)CC[C@H]2[C@@H]3CCC4=Cc5oncc5C[C@]4(C)[C@H]3CC[C@@]21C` below 100 mg/dL, do you know?
A: 1.0
